B1: glmS ribozyme (parent)
chain: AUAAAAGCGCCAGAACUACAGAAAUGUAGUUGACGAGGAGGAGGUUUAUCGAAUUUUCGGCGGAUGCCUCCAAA

Variants of: B1
Assay: self-cleavage kobs at 2500 uM GlcN6P; higher = faster cleavage; RNA array
Details: with glucosamine-6-phosphate
Variants at the floor of the assay were thinned out.
// label = Criterion met if self-cleavage kobs at 2500 uM GlcN6P is not less than 0.0005 s⁻¹, otherwise Criterion not met

mutant-designation | discrete-label
G37A G41A | Criterion not met
G37A A53C | Criterion not met
C16G C50U A53C C68G | Criterion not met
G7C G13C G63U C70G | Criterion not met
C8A C16A G40C U65G | Criterion not met
G9C G40U | Criterion not met
A14U G38C | Criterion not met
U45G U46G | Criterion met
G32A C58G C68U | Criterion not met
A14U G35U | Criterion not met
C70A | Criterion met
U30C A48C | Criterion not met
C16A G35C U47G | Criterion not met
G7A C10U G35U G43U | Criterion not met
U45C G66U C70G | Criterion not met
A42G A48U G62U C71U | Criterion not met
C10A C11A G51U A52U | Criterion not met
C10G A52G | Criterion not met
C8U U49A U69G | Criterion met
C11U A15G C70U | Criterion met
G7C U55A A64U | Criterion not met
